system: U2OS; assay: nuclei count (viability) relative to DMSO (% of DMSO); higher = more viable cells; details: 10 µM; 24 h
The full ranking holds about 3,200 compounds; the median of “nuclei count (viability) relative to DMSO” is about 99, and the lowest 2% start at about 16. The entries come from a sample that favours the lowest values as a whole.
Quick list: nuclei count per entry.
The answer should be a number; do not append a unit.

Some solved cases for reference:
Molecule	nuclei count
COc1ccc(NS(=O)(=O)c2sc3ccc(Cl)cc3c2C)cc1N1CCNCC1	98.3
CC1(C)S[C@@H]2[C@H](NC(=O)Cc3ccccc3)C(=O)N2[C@H]1C(=O)O [Benzathine benzylpenicillin]	81.7
O=C(/C=C/c1ccc2ccccc2n1)c1ccncc1	11.3

Problem: Look up and state reported nuclei count for CC1(C)[C@@H](O[C@H]2O[C@H](C(=O)O)[C@@H](O)[C@H](O)[C@H]2O[C@@H]2O[C@H](C(=O)O)[C@@H](O)[C@H](O)[C@H]2O)CC[C@]2(C)[C@H]3C(=O)C=C4[C@@H]5C[C@@](C)(C(=O)O)CC[C@]5(C)CC[C@@]4(C)[C@]3(C)CC[C@@H]12 [Glycyrrhizic acid]
Result: 101
